Provenance of the data: patent US20170204076A1

Tested on: HEK 293 cells
Assay: Primary screen of lipid reagents: plasmid DNA transfection, YFP fluorescence relative to total cell number (Hoechst)
Format: cell-based
Conditions: Hoechst stained apoptotic nuclei, microscope images
From the text: Cell line: HEK 293 cells Screen format: 96-well Detection (read-out): YFP fluorescence relative to total cell number (total cell number assessed using the nuclear dye, Hoechst—see FIGS. 1 and 2) A commercially available liposomal transfection reagent was used as a reference (reference reagent) according to manufacturers' instructions, see FIGS. 1 and 2. All steps performed in 96 tube/plate format using 8- or 12-channel multi-pipettes. Amounts shown are for duplicate (2×) wells of a 96-well plate. 1. […]

COMPOUND | cell toxicity
CCCCCCCCCCCSCC(CNC(=O)NCCN(C)C)SCCCCCCCCCCC (stereo not shown) | very low toxicity
CCCCCCCCCCCSCC(COCC(O)CNCCN(CC)CC)SCCCCCCCCCCC (stereo not shown) | very low toxicity
CCCCCCCCCCCCSCC(COCC(O)CNCCCN(CC)CC)SCCCCCCCCCCCC (stereo not shown) | low cell toxicity
CCCCCCCCCCCSCC(CNC(=O)NCCCN(CC)CC)SCCCCCCCCCCC (stereo not shown) | low cell toxicity
